- target system: Human FRA on IGROV-1 human ovarian adenocarcinoma cells (human, UniProt P15328 25-234)
- Sequence (P15328 25-234 limits assumed): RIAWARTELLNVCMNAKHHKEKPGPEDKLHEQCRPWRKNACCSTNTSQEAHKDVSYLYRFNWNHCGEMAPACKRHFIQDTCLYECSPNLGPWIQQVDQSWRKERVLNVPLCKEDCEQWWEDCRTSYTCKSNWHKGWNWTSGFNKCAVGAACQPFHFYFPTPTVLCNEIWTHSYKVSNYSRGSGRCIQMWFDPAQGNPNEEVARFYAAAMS
- experimental protocol: cell-based or functional assay
Please provide measured INTL % (30 min) for the entries that follow.
Express your answer as a number followed by its unit.

The following binders have reported results that may help.
# binder, INTL % (30 min)
rows = [
    ("MORAb-003 anti-FRA antibody, lot NB859-27 (harvested 20 days after initiation of culture) (antibody, human IgG1, kappa, V domains shown, N-linked neutral glycans at Asn299 in SEQ ID NO: 5, also called Day 20 harvest) VH: EVQLVESGGGVVQPGRSLRLSCSASGFTFSGYGLSWVRQAPGKGLEWVAMISSGGSYTYYADSVKGRFAISRDNAKNTLFLQMDSLRPEDTGVYFCARHGDDPAWFAYWGQGTPVTVSS VL: DIQLTQSPSSLSASVGDRVTITCSVSSSISSNNLHWYQQKPGKAPKPWIYGTSNLASGVPSRFSGSGSGTDYTFTISSLQPEDIATYYCQQWSSYPYMYTFGQGTKVEIKR", "19%"),
    ("MORAb-003 anti-FRA antibody, lot NB809-66 (0.5 mM Na butyrate; harvested 13 days after initiation of culture) (antibody, human IgG1, kappa, V domains shown, N-linked neutral glycans at Asn299 in SEQ ID NO: 5) VH: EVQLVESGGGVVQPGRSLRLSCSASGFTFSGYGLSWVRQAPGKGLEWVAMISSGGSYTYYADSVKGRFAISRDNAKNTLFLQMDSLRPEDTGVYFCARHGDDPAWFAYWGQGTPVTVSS VL: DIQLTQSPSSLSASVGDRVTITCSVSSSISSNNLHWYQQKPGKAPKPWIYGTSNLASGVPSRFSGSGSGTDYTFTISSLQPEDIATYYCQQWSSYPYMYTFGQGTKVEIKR", "8%"),
]

**Q:** For MORAb-003 anti-FRA antibody, lot NB859-24 (harvested 10 days after initiation of culture) (antibody, human IgG1, kappa, V domains shown, N-linked neutral glycans at Asn299 in SEQ ID NO: 5, also called Day 10 harvest) VH: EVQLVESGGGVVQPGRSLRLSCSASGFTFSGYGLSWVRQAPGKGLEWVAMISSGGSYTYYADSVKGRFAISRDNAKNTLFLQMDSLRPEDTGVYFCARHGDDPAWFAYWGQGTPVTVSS VL: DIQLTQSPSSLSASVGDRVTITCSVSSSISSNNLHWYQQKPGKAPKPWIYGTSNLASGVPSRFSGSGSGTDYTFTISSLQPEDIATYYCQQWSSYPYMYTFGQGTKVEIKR , what is its reported INTL % (30 min)?
**A:** 18%
